Reference source for all entries: patent US11985994B2

# Method Summary: Sensory evaluation (smell, color, taste) of Maillard reaction samples, Examples 52, 55-63
# Design: species or system human
# Settings: negative controls (no carbohydrate source), 10 ml glycerin/water, 100 °C, 40 minutes
Readout Kind: Color

Take a look at these entries with their results.
- Mol Smiles: "N[C@@H](Cc1ccccc1)C(=O)O"
  Color: "Very Slightly"
- Mol Smiles: "N[C@@H](Cc1c[nH]c2ccccc12)C(=O)O"
  Color: "Slightly Yellow"
- Mol Smiles: "C[C@H](N)C(=O)O"
  Color: "No color"
- Mol Smiles: "NCCCC[C@H](N)C(=O)O"
  Color: "brown"
- Mol Smiles: "N[C@@H](Cc1ccc(O)cc1)C(=O)O"
  Color: "No color"

Requested read-out: Color. Entry: N[C@@H](CS)C(=O)O
Slightly Yellow

Requested read-out: Color. Entry: O=C(O)[C@@H]1CCCN1
Slightly Yellow

Requested read-out: Color. Entry: C[C@@H](O)[C@H](N)C(=O)O
Very Slightly

Requested read-out: Color. Entry: CSCC[C@H](N)C(=O)O
Very Slightly

Requested read-out: Color. Entry: N[C@@H](CO)C(=O)O
Slightly Yellow

Requested read-out: Color. Entry: CC[C@H](C)[C@H](N)C(=O)O
No color
